The origin of these recorded values is patent US8748600B2.

- targetOrSystem: DiHydroFolate Reductase (DHFR) (Rattus norvegicus)
- Construct: from tissue; host or cells: rat liver homogenate, 47,500 x g supernatant
- Sequence (Q920D2 whole entry): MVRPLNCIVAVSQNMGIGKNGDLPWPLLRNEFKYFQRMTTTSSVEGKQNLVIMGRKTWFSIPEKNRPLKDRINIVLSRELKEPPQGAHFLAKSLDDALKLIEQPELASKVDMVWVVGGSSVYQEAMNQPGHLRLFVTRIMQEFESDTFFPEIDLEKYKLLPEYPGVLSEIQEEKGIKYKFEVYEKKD
- assayInfo: Inhibition of binding of [3H]methotrexate to rat liver homogenate supernatant (DHFR)
- testConditions: read-out: DHFR (% inhibition @ 125 μm)
- Protocol: All steps were carried out at 4° (or on ice). Freshly dissected rat liver was dissected into 0.25M ice-cold Sucrose and subsequently homogenised (U-turrax) in 50 mM pH 6.0 phosphate buffer (10 ml/g tissue) containing 15 mM Dithiothreitol. The resulting homogenate was centrifuged @ 47,500×g for 20 min and supernatant (filtered through cotton wool to remove fatty lumps) stored @-80° before use (Rothenberg et al). […]
Give met when the value for inhibition at […] is at least 60%. Give not met when it is less.

molecule	targetOrSystem	class
COc1ccc(C2(c3nnc(N)nc3N)CCCC2)cc1	DiHydroFolate Reductase (DHFR) (Rattus norvegicus)	not met
Nc1nnc(C(c2ccc(F)cc2)c2ccc(F)cc2)c(N)n1	DiHydroFolate Reductase (DHFR) (Rattus norvegicus)	not met
Nc1nnc(C2(c3ccccc3)CC2)c(N)n1	DiHydroFolate Reductase (DHFR) (Rattus norvegicus)	not met
COc1ccc(C2(c3nnc(N)nc3N)CC2)cc1	DiHydroFolate Reductase (DHFR) (Rattus norvegicus)	not met
Cc1ccc(C2(c3nnc(N)nc3N)CCCCC2)cc1	DiHydroFolate Reductase (DHFR) (Rattus norvegicus)	met
Nc1nnc(C2(c3ccc(Cl)cc3Cl)CC2)c(N)n1	DiHydroFolate Reductase (DHFR) (Rattus norvegicus)	met
Nc1nnc(C2(c3ccccc3)CCCC2)c(N)n1	DiHydroFolate Reductase (DHFR) (Rattus norvegicus)	met
Nc1nnc(C2(c3cccc(F)c3)CCCC2)c(N)n1	DiHydroFolate Reductase (DHFR) (Rattus norvegicus)	not met
Nc1nnc(C2(c3ccccc3)CCCCC2)c(N)n1	DiHydroFolate Reductase (DHFR) (Rattus norvegicus)	not met
Nc1nnc(C(Cc2ccccc2)c2ccccc2)c(N)n1 (stereo not drawn)	DiHydroFolate Reductase (DHFR) (Rattus norvegicus)	met
Nc1nnc(-c2cccc(OCc3cccc4ccccc34)c2)c(N)n1	DiHydroFolate Reductase (DHFR) (Rattus norvegicus)	not met
Cc1ccc(C2(c3nnc(N)nc3N)CCCC2)cc1	DiHydroFolate Reductase (DHFR) (Rattus norvegicus)	met
